Assay Explanation: In vivo […] plug angiogenesis model (number of endothelial cells in plugs)
Set-up: species or system athymic (nu/nu) Balb/c mice
Condition Info: mouse, in vivo, po; read-out: maximum tolerated dose (MTD)
Attribute Measured: MTD (mg/kg)
Quick reminder: number only, in mg/kg, skip the unit.

Task: Return MTD for the following compound: COC(=O)O[C@@]12CO[C@@H]1C[C@H](O)[C@@]1(C)C(=O)[C@H](OC(C)=O)C3=C(C)[C@@H](OC(=O)[C@H](O)[C@@H](NC(=O)OC(C)(C)C)C(C)(C)C)C[C@@](O)([C@@H](OC(=O)c4ccccc4)[C@H]21)C3(C)C [Formula I]
Output: 60

Hey, just so you know, these numbers are from patent EP1372636B1.
